Form field: IC50 (one value per entry).
# subject-of-test: human bradykinin B2 receptor (hB2R) (Homo sapiens)
# protocol: human bradykinin B2 receptor calcium mobilization (hB2R-CaM) assay
# settings: antagonism of bradykinin (EC80) induced calcium mobilization, B2 Bradykinin Receptor Stable Cell Line HTS041C, 25 min pre-incubation; read-out: IC50-value towards human bradykinin B2 receptor (hB2R)

Task: I have this compound here, Cc1cc(-n2cc(F)cn2)c2cccc(OCc3c(Cl)cc(F)cc3[C@H](C)N3CCN(C(=O)OC(C)(C)C)[C@H](C)C3=O)c2n1 [compound 79] , and I need its recorded IC50.
Result: 101 to 500 nM

Task: Let us now turn to Cc1cc(-n2cc(F)cn2)c2cccc(OCc3c(Cl)cc(F)cc3[C@H](C)N3CCN(C)[C@@H](C)C3=O)c2n1 [compound 92]
Result: ≤ 10 nM

Task: Let us now turn to CCC1CCC(=O)N([C@@H](C)c2cc(F)cc(Cl)c2COc2cccc3c(-n4cc(F)cn4)cc(C)nc23)C1 (stereo partly drawn) [compound 66]
Result: 11 to 100 nM

###

# subject-of-test: human bradykinin B2 receptor (hB2R) (Homo sapiens, UniProt P30411)
# protocol: human bradykinin B2 receptor calcium mobilization (hB2R-CaM) assay
# settings: antagonism of bradykinin (EC80) induced calcium mobilization, B2 Bradykinin Receptor Stable Cell Line HTS041C, 25 min pre-incubation; read-out: IC50-value towards human bradykinin B2 receptor (hB2R)
pIC50: −log10 of the molar value.
observation-type: pIC50

Answered examples (5):
# compound, pIC50
records = [
    ("Cc1cc(-n2cc(F)cn2)c2cccc(OCc3c(Cl)cc(F)cc3[C@H](C)N3CC[C@H](Cl)C3=O)c2n1 [compound 37]", "≥ 8.00"),
    ("Cc1cc(-n2cc(F)cn2)c2cccc(OCc3c(Cl)cc(F)cc3[C@H](C)N3C[C@@H](C)N(C)C(=O)C3=O)c2n1 [Compound No. 11]", "≥ 8.00"),
    ("Cc1cc(-n2cc(F)cn2)c2cccc(OCc3c(Cl)cc(F)cc3[C@H](C)N3CC(=O)NC(C)(C)C3=O)c2n1 [compound 102]", "7.00 to 7.96"),
    ("Cc1cc(-n2cc(F)cn2)c2cccc(OCc3c(Cl)cc(F)cc3[C@H](C)N3CC(=O)N(CCN(C)C)C3=O)c2n1 [compound 24]", "7.00 to 7.96"),
    ("Cc1cc(-c2ncnn2C)c2cccc(OCc3c(Cl)cc(F)cc3[C@H](C)N3CCN(C)C(C)(C)C3=O)c2n1 [Compound No. 10]", "7.00 to 7.96"),
]

Let's switch to this compound now.
Task: I have this compound here, CCN1C(=O)C(C)N([C@@H](C)c2cc(F)cc(Cl)c2COc2cccc3c(-n4cc(F)cn4)cc(C)nc23)C1=O (single isomer, unassigned) [Compound No. 2] , and I need its recorded pIC50.
Result: 7.00 to 7.96

###

# subject-of-test: human bradykinin B2 receptor (hB2R) (Homo sapiens, UniProt P30411)
# Sequence (P30411 1-391): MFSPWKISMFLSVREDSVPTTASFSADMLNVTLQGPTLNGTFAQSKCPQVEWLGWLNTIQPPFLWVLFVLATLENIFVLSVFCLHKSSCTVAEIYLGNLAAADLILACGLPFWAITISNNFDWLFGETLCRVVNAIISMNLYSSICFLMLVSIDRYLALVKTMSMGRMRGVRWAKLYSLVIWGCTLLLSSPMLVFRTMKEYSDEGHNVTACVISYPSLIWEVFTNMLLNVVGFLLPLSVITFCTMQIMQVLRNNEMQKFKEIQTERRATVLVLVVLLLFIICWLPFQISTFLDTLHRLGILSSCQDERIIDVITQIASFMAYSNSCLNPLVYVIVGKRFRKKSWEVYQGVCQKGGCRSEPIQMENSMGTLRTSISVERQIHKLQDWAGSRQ
# protocol: human bradykinin B2 receptor calcium mobilization (hB2R-CaM) assay
# settings: antagonism of bradykinin (EC80) induced calcium mobilization, B2 Bradykinin Receptor Stable Cell Line HTS041C, 25 min pre-incubation; read-out: IC50-value towards human bradykinin B2 receptor (hB2R)
pIC50: −log10 of the molar value.
observation-type: pIC50

Task: I have this compound here, Cc1cc(-c2ncnn2C)c2cccc(OCc3c(Cl)cc(F)cc3[C@H](C)N3C(=O)COCC3C)c2n1 (single isomer, unassigned) , and I need its recorded pIC50.
Result: 7.00 to 7.96

Task: Let us now turn to Cc1cc(-c2ncnn2C)c2cccc(OCc3c(Cl)cc(F)cc3[C@H](C)N3CCCCC3=O)c2n1
Result: ≥ 8.00

Task: Let us now turn to Cc1cc(-c2ncnn2C)c2cccc(OCc3c(Cl)cc(F)cc3[C@H](C)N3CCOC(C)C3=O)c2n1 (single isomer, unassigned)
Result: ≥ 8.00

Task: Let us now turn to Cc1cc(-c2ncnn2C)c2cccc(OCc3c(Cl)cc(F)cc3[C@H](C)N3CCC(C)(C)C3=O)c2n1
Result: 7.00 to 7.96
